Every entry's value here was drawn from a melting point compilation (Tetko et al.; mined from patent text by program, amines drawn as free bases though some values may be those of a salt).

Readings of melting point for the listed compounds
Assay Metric: melting point

Smiles Data | Val
Cc1cccc(C)c1NC(=O)CCS(=O)(=O)c1cc(C(C)(C)C)c(O)c(C(C)(C)C)c1 | 218 to 219 °C
CC(C)(C)OC(=O)Cn1c(=O)c(=O)[nH]c2cc(Cl)c(Cl)cc21 | > 300 °C
CC(C)(Oc1ccc(OCc2ccc3nn(-c4ccc(C(F)(F)F)cc4)cc3c2)cc1)C(=O)O | 203 to 205 °C
Cc1ccc(C(=O)c2cccc3c2CCC3=O)cc1 | 105 to 108 °C
CCCCOc1ncc(C(C)=O)cc1-c1nn2c(CC)nc(C)c2c(=O)[nH]1 | 190 to 196 °C
Cc1cc2nnc(C)n2nc1-c1cccc(C(F)(F)F)c1 | 185 to 187 °C
c1ccc(-c2ccc(CN3CCN(c4ccccc4)CC3)s2)cc1 | 88 °C
O=C(O)C(=O)c1ccc(OCCCCc2cccnc2)cc1 | 163 to 165 °C

* * *

Readings of melting point for the listed compounds
Assay Metric: melting point

Compound | Assay Metric | Val
COc1cc([N+](=O)[O-])c2nccc(C)c2c1OCCCCCc1ccccc1 | melting point | 47 to 50 °C
CCN1C(=O)[C@@H](NC(=O)OC(C)(C)C)COc2ccccc21 | melting point | 112 °C
FC(F)(F)c1nc2nc(Cl)c(Cl)cc2[nH]1 | melting point | 222 to 224 °C
CC(C)(C)C(S)(CC#N)C(C)(C)C | melting point | 154 to 155 °C
COC(=O)c1cc(N=NN(C)C)cs1 | melting point | 90 to 92 °C
O=Cc1csc(NC2CC2)n1 | melting point | 124 to 127 °C
C[C@H]1CCCC(C)(C)[C@@H]1[C@H](O)c1ccc(C(F)(F)F)c(F)c1 | melting point | 71 to 73 °C
Cc1ccc(C=CC(=O)O)cn1 | melting point | 214 to 216 °C
CC(=O)OCC1OC(Oc2ncn(Cc3ccc([N+](=O)[O-])cc3)c2C(N)=O)C(OC(C)=O)C1OC(C)=O (stereo unspecified) | melting point | 156 °C
COc1ccc(Br)c(O)c1 | melting point | 40 to 42 °C
S=C(NCCCCN(Cc1ccc(Br)cc1)c1ccccn1)NCCCn1ccnc1 | melting point | 122 to 124 °C

* * *

Molecule | melting point
O=C1CCC(c2ccc(Cl)cc2)c2ccccc2N1 (stereo not given) | 209 to 212 °C
COc1ccc(-c2csc(Nc3ccc(C)cn3)n2)cc1 | 246 to 248 °C
O=C1CC(c2ccccc2)c2cc(Br)ccc2O1 (stereo not given) | 117 °C
NC(=O)CCN1CCCCC1 | 105 to 107 °C
NCCc1cc(F)cc(C(F)(F)F)c1 | > 170 °C
CCOC(=O)Nc1nc2ccccc2c2c(CC(C)C)n(C)nc12 | 120 to 121 °C
COc1cccc(Nc2n[nH]c(N=CN(C)C)c2C#N)c1 | 227 to 231 °C
CC(NC(=O)C1C(CO)N(Cc2ccccc2)C(=O)N1Cc1ccccc1)c1ccc2ccccc2c1 (stereo not given) | 170 to 175 °C
O=c1cc(CBr)c2c(Cl)cc(Cl)cc2[nH]1 | 299 to 301 °C
CC(=O)OC(OC(C)=O)c1ccc(C#N)cc1 | 104 to 107 °C
